assay_target: P. falciparum apicoplast DNA polymerase (Pf-apPOL) (Plasmodium falciparum, UniProt Q8ILY1)
Sequence (Q8ILY1 entry or part of it): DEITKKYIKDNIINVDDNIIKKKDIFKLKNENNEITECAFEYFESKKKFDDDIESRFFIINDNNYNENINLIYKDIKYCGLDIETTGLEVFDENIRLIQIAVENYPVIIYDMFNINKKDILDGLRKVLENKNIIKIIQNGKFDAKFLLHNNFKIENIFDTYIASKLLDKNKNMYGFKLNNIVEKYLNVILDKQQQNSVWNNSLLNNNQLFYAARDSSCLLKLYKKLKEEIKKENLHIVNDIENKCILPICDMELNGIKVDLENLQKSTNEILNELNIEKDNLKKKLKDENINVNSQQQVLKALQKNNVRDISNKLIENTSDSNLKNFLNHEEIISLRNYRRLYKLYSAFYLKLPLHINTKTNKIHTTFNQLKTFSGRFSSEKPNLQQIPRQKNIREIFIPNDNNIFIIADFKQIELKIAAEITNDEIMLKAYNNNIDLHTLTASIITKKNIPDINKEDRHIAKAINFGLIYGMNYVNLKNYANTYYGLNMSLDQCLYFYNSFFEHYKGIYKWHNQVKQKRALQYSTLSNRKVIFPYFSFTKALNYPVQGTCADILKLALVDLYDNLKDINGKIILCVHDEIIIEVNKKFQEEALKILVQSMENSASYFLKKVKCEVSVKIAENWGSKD
experiment: Fluorescence-based high-throughput DNA polymerase assay (molecular beacon), primary screen and dose-response;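 further: test concentration in µM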
Assay type: biochemical
test_parameters: DRC-2; 180'; concentration 2.5
experimental_endpoint: % inhibition apPOL 180' (%)

compound="CCCCSc1nnc2c(n1)OC(c1ccc([N+](=O)[O-])o1)Nc1ccccc1-2 (stereo not shown)" experimental_endpoint="% inhibition apPOL 180'" result_number=11
compound=CCCCc1ccc(NC(=O)CSc2nc(O)c(C#N)c(C3CCCCC3)n2)c(C)c1 experimental_endpoint="% inhibition apPOL 180'" result_number=-0.672
compound="O=C1N=C(Nc2cccc(Cl)c2Cl)S/C1=C\\c1ccco1 [Molecule 3, O=C1N=C(S/C/1=C\\c1ccco1)Nc1cccc(c1Cl)Cl]" experimental_endpoint="% inhibition apPOL 180'" result_number=22
compound=Oc1cccc2ccc(/C=C/c3ccc4c(c3)OCO4)nc12 experimental_endpoint="% inhibition apPOL 180'" result_number=-0.452
